# System: TO-N3-2 (biotin conjugate)
# method: pull-down binding Z-score (relative to library population); higher = stronger binding
# condition: RNA library: Library-2
The following sequences are shown together with reported pull-down binding Z-score values.

### Prompt Report pull-down binding Z-score for GCUAGUCUUAAUGGAGUCACAUUAAUUGGAGAAGC please.
### Response 0.337

### Prompt # lookup: pull-down binding Z-score of UUAACAUGUUGAGCAUUACUCAUGUUAG [hsa-mir-3684]
### Response -0.162

### Prompt # input sequence: GAUUCUUGAGGCUUGGAAGAGUAAGGAUC [hsa-mir-6866] ; wanted: its pull-down binding Z-score
### Response 1.07

Others:
### Prompt Please give the measured pull-down binding Z-score for this sequence: CCUUCUGCUUACAGGUAUUGGAAGG [hsa-mir-3158-1]
### Response -0.685

### Prompt Could you share which pull-down binding Z-score value was measured for UGCCAUUACUCUCAGUGGCA [hsa-mir-548y] ?
### Response -1.01

### Prompt Quick check: pull-down binding Z-score of CCAUGGUGUGCUCUGAUCCCCCUGUGG [hsa-mir-6848] ?
### Response 0.49

### Prompt So what does the record say about pull-down binding Z-score for GCCUUGAAGCCCCUUUUCUCUAUCUUUAUGCUUUAGUCUACUUCUUGCAGAGUAUAAACUUUGUAAGAAUAAUAAUGAGGC ?
### Response 0.166

### Prompt Value lookup for pull-down binding Z-score; key = CUGUGGUGGCUGCUCAUGCACCACGG [hsa-mir-105-1]
### Response -0.558

### Prompt Could you tell me which pull-down binding Z-score is on file for GAGGUGAUGCAGAUACUUACCUG [U1snRNP5ss-20] ?
### Response 0.343

### Prompt # input sequence: UCCUAGGCGGGUCGCUGCGGUACCUCCCUCCUGUCUGUGGCGGUGGGAUCCCGUGGCCGUGUUUUCCUGGUG [hsa-mir-663b] ; wanted: its pull-down binding Z-score
### Response 1.55

### Prompt Which pull-down binding Z-score reading was recorded for the sequence ACGUGGCUUUGGAGACUCCGUGGAGGAGGUCUUAUCAGAGGCACGU ?
### Response 0.34

### Prompt I would be grateful if you could share the reported pull-down binding Z-score for AGUGAAAUAAAGGUCCAUCUCCUGCCUAUUUAUUACUUUGCU [hsa-mir-1243] .
### Response -0.5

### Prompt Reported pull-down binding Z-score for UAGAUGAAUAAAUGAAUGACUCAUCA [hsa-mir-545] : what is it?
### Response -0.21

### Prompt # query: pull-down binding Z-score of entry UUACUCACCCUCUCAAAACCGAGACUCAGAGACGUUGGGUAA [hsa-mir-7973-2]
### Response 0.271

### Prompt // pull-down binding Z-score lookup, key: AUUGCAUGUUCUGGUGGUACCCAUGCAAU [hsa-mir-33a]
### Response 0.382

### Prompt Item AUAUGUGUGUAUAUAUGUACACAUAC [hsa-mir-466] has what recorded pull-down binding Z-score?
### Response -1.14

### Prompt Recorded pull-down binding Z-score for GCGCUGCCAGAAACUGGCUUAAGCGC [bulge-UUA] , please?
### Response -0.601

### Prompt pull-down binding Z-score for UUUGCAUCUGGACGACGAAU [hsa-mir-409] ?
### Response 0.523
